This collection of values is drawn from ChEMBL document CHEMBL1765085.

# Test system: OVCAR-3
# procedure-details: Cytotoxicity in human OVCAR3 cells assessed as cell viability after 48 hrs by MTT assay
# Assay type: functional, cell-based
# measurement-conditions: OVCAR-3, 48 h
// classify: if (IC50 < 20 µM) 1.0 else 0.0

These solved cases illustrate the format of a correct answer.
compound | group-label
C=C(CCC(C(=O)O)[C@H]1CC[C@@]2(C)C3=CC[C@H]4C(C)(C)C(=O)CC[C@]4(C)C3=CC[C@]12C)C(C)C (stereo partly drawn) [DEHYDROEBURICONIC ACID] | 0.0
C=C(CC[C@@H](C(=O)O)[C@H]1[C@H](O)C[C@@]2(C)C3=CC[C@H]4C(C)(C)[C@H](O)CC[C@]4(C)C3=CC[C@]12C)C(C)(C)O | 1.0
C=C(CC[C@@H](C(=O)OC)[C@H]1[C@H](O)C[C@@]2(C)C3=CC[C@H]4C(C)(C)[C@H](O)CC[C@]4(C)C3=CC[C@]12C)C(C)(C)O | 0.0
C=C(CC[C@@H](C(=O)O)[C@H]1[C@H](O)C[C@@]2(C)C3=CC[C@@H](C(=C)C)[C@](C)(CCC(=O)O)C3=CC[C@]12C)C(C)C [PORICOIC ACID A] | 0.0
C=C(CC[C@@H](C(=O)OC)[C@H]1CC[C@@]2(C)C3=CC[C@@H](C(=C)C)[C@](C)(CCC(=O)OC)C3=CC[C@]12C)C(C)C [DIMETHYL PORICOATE C] | 0.0

Moving on to another compound below.
Is IC50 strictly under 20 µM for the entry C=C(CC[C@@H](CO)[C@H]1CC[C@@]2(C)C3=CC[C@H]4C(C)(C)[C@@H](O)CC[C@]4(C)C3=CC[C@]12C)C(C)C ?
1.0

----------
Entries annotated with measured IC50
# System: PANC-1
# procedure-details: Cytotoxicity in human PANC1 cells assessed as cell viability after 48 hrs by MTT assay
# Type: functional, cell-based
# measurement-conditions: PANC-1, 48 h
State just the number; it will be interpreted in µM.

compound | IC50, µM
C=C(CCC(C(=O)O)[C@H]1CC[C@@]2(C)C3=CC[C@H]4C(C)(C)C(=O)CC[C@]4(C)C3=CC[C@]12C)C(C)C (stereo not given in full) [DEHYDROEBURICONIC ACID] | 5.5

What value of IC50 has been recorded for this entry: C=C(CC[C@@H](C(=O)OC)[C@H]1[C@H](O)C[C@@]2(C)C3=C(CC[C@]12C)[C@@](C)(CCC(=O)OC)[C@H](C(=C)C)CC3)C(C)C [DIMETHYL PORICOATE H]
44.9

----------
# Test system: OVCAR-3
# procedure-details: Cytotoxicity in human OVCAR3 cells assessed as cell viability after 48 hrs by MTT assay
# Assay type: functional, cell-based
# measurement-conditions: OVCAR-3, 48 h
measurement-type: pIC50
Notebook: values listed as pIC50 are -log10 of the concentration (mol/L).

Below, each entry is followed by its recorded pIC50 result.
compound | pIC50
C=C(CC[C@@H](CO)[C@H]1[C@H](O)C[C@@]2(C)C3=CC[C@@H](C(=C)C)[C@](C)(CCCO)C3=CC[C@]12C)C(C)C [PORICOTRIOL A] | 5.66
C=C(CC[C@@H](C(=O)OC)[C@H]1[C@H](O)C[C@@]2(C)C3=C(CC[C@]12C)[C@@](C)(CCC(=O)OC)[C@H](C(=C)C)CC3)C(C)C [DIMETHYL PORICOATE H] | 4.31
C=C(CC[C@@H](CO)[C@H]1CC[C@@]2(C)C3=CC[C@@H](C(=C)C)[C@](C)(CCCO)C3=CC[C@]12C)C(C)C [PORICOTRIOL C] | 4.15

// fetch OVCAR-3 pIC50 for C=C(C)[C@@H]1CCC2=C(CC[C@]3(C)[C@@H]([C@@H](CCC=C(C)C)C(=O)OC)[C@H](O)C[C@@]23C)[C@@]1(C)CCC(=O)OC [DIMETHYL PORICOATE G]
4.58
